molecular target: F508delCFTR (Homo sapiens, UniProt P13569, DEL508-508); construct: expressed in transfected cells; host or cells: CFBE41o- human lung-derived epithelial cells (CFBE4lo-F508delCFTR-HRP), doxycycline-inducible; assay: Cell Surface Expression-Horse Radish Peroxidase (CSE-HRP) Assay; type: cell-based; details: test compound without co-corrector; maximum at any tested concentration, normalized to on-plate positive control; read-out: Maximum % activity (without co-corrector);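 note: percent of the 2 µM on-plate positive control corrector response above DMSO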
Sequence (P13569 with tags, fused parts or gaps DEL508-508): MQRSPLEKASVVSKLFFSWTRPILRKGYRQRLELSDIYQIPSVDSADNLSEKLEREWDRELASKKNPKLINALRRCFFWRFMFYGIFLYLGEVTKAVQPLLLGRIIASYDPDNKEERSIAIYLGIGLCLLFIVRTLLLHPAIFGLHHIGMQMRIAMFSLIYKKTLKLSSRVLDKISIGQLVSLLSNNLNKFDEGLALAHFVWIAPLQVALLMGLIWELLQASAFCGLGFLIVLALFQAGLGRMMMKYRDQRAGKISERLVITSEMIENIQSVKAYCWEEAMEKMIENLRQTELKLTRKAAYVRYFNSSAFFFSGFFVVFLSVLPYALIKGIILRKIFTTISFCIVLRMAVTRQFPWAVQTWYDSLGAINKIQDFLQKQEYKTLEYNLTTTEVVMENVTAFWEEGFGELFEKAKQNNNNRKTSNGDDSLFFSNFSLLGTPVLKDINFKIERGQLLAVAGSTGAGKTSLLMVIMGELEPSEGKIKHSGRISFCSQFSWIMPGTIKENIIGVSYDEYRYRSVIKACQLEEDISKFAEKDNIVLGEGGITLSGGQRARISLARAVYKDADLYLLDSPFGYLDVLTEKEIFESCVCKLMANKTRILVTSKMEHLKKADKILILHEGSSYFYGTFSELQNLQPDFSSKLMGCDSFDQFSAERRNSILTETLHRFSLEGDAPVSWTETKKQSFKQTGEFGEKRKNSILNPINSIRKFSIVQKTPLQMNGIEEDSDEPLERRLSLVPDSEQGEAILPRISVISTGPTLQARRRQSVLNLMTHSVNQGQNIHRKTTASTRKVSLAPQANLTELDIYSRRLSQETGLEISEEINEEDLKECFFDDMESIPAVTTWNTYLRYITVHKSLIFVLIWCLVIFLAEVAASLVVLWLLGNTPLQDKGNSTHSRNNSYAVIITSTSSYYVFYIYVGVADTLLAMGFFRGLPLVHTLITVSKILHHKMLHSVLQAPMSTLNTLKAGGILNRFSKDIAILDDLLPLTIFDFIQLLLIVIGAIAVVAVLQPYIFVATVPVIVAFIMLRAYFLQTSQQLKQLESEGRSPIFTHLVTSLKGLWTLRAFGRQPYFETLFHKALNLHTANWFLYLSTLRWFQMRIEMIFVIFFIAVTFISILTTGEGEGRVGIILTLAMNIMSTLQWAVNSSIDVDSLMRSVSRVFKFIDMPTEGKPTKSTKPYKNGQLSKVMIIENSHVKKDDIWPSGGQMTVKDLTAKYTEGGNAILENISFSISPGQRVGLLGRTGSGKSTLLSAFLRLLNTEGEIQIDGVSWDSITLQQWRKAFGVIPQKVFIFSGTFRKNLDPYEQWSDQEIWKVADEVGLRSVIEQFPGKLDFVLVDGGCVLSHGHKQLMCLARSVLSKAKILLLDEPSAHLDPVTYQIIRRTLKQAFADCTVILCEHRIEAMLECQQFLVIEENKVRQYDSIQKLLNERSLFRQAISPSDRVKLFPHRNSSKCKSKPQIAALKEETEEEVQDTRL
property_label: Emax

Previously resolved entries follow.
                                   compound  property_label       result
0  Cc1cc(C(F)(F)F)cc(N[C@@H]2[C@@H](C(C)(C)C)[C@H](C(=O)O)N(C(=O)OC(C)C)[C@@H]2c2cccnc2N(C)C)n1 (racemic)            Emax       < 100%
1  COc1ncc(C(F)(F)F)cc1CN[C@@H]1[C@@H](C(C)(C)C)[C@H](C(=O)O)N(C(=O)[C@@H]2CCCCO2)[C@@H]1c1ccccc1            Emax       < 100%
2  COc1ccc(C(C)(C)C)cc1CN[C@H]1[C@H](C(C)(C)C)[C@@H](C(=O)O)N(C(=O)[C@@H]2CCC[C@H](O)C2)[C@H]1c1ccccc1            Emax  100 to 200%
3  CC(C)N(C(=O)N1[C@H](c2ccccc2)[C@H](NCc2ccccc2OC(F)F)[C@@H](C)[C@@H]1C(=O)O)C(C)C (racemic)            Emax       < 100%
4  COc1nc(C(C)(C)C)ncc1CN[C@H]1[C@H](C(C)(C)C)[C@@H](C(=O)O)N(C(=O)C2CCCC(F)(F)C2)[C@H]1c1ccccc1 (relative stereo)            Emax  100 to 200%
5  COc1ccc(C(F)(F)F)cc1CN[C@H]1[C@H](C(C)(C)C)[C@@H](C(=O)O)N(C(=O)C2CCc3cc(C)ccc3O2)[C@H]1c1ccccc1 (stereo partly drawn)            Emax  100 to 200%
6  CCC(C)(C)c1ccc(OC)c(CN[C@H]2[C@H](C(C)(C)C)[C@@H](C(=O)O)N(C(=O)OC(C)C)[C@H]2c2cccnc2N(C)C)c1            Emax       > 200%
7  COc1ccccc1CN[C@@H]1[C@@H](C(C)(C)C)[C@H](C(=O)O)N(C(=O)C2CCCCC2)[C@@H]1c1ccccc1 (racemic)            Emax       < 100%
8  COc1nc(C(C)(C)C)ccc1CN[C@H]1[C@H](C(C)(C)C)[C@@H](C(=O)O)N(C(=O)Cc2ccccc2C)[C@H]1c1ccccc1            Emax  100 to 200%
9  COc1ccc(Cl)cc1CN[C@@H]1[C@@H](C)[C@H](C(=O)O)N(C(=O)N(C(C)C)C(C)C)[C@@H]1c1ccccc1 (racemic)            Emax       < 100%

Enquiry: Please look at this compound and report its Emax: COc1ccc(C(C)(C)C)cc1CN[C@H]1[C@H](C(C)(C)C)[C@@H](C(=O)O)N(C(=O)N(C(C)C)C(C)C)[C@H]1c1ccccc1
Return: < 100%

Enquiry: For the compound COc1ccc(SC(F)(F)F)cc1CN[C@H]1[C@H](C(C)(C)C)[C@@H](C(=O)O)N(C(=O)C2CCCCC2)[C@H]1c1cccnc1OC , report Emax.
Return: 100 to 200%
